- Assay target: T1, human serum albumin (human, UniProt P02768 25-609)
- T1 construct: also called HSA
- Assay name: SPR, single cycle kinetics, pH 5.5
pKd: −log10 of the molar value.

Binder	pKd
Rh46 sdAb (VHH, also called Rh46 VHH) VHH: QVKLEESGGGLVQAGGSLRLSCTASTRTFSSYIMGWFRQAPGKERELVAAISWSGRMTHYADSVKGRFAISRDNAKNTVYLQMNVLKPEDTAIYSCAADRTTAWGAPRSQYDSWGQGTQVTVSS	7.39
H18 sdAb (VHH, also called H18 VHH) VHH: QVQLVESGGGLVQAGGSLRLSCTASGSIESINRMAWYRQAPGQQREFVARISKGGSTNYPDSVKGRFTISRDNAKNTVYLQMNSLKPEDTAVYYCAAGPVWEQFWGQGTQVTVSS	7.34
M79 sdAb (VHH, also called M79 VHH) VHH: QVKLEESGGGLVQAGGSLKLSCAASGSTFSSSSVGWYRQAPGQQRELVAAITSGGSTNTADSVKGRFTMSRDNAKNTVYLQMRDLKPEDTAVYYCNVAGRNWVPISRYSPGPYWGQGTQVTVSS	8.15
R11 sdAb (VHH, also called R11 VHH) VHH: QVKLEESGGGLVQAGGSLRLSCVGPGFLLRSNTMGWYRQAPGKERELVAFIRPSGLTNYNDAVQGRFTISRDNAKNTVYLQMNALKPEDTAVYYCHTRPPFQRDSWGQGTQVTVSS	7.54
R28 sdAb (VHH, also called R28 VHH) VHH: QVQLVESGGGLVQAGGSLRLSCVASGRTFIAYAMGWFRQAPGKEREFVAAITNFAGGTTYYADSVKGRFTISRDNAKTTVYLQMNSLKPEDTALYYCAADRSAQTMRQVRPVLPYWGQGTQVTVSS	8.74
Rh34 sdAb (VHH, also called Rh34 VHH) VHH: QVKLEESGGGLVQAGGSLRLSCAASGRTISLYAVGWFRRAPGKEREFVAAISWTDSSTYYADSVKGRFTISRDNAKNTVYLGMNSLNPEDTAVYYCAADVSIRGLQKYEYDYWGQGTQVTVSS	6.89
M75 sdAb (VHH, also called M75 VHH) VHH: QVQLVESGGGFVQAGGSLRLSCAASGRTFDNYVMAWFRQAPGKEREFVASISGSGSITNYANSVKDRFTISRDSAKNAIYLQMNSLKPEDTALYYCAAGSRRTYYREPKFYPSWGQGTQVTVSS	6.13
